Provenance of the data: PubChem BioAssay (Tox21)

molecular target: Acetylcholinesterase (Homo sapiens) (UniProt P22303); assay: Acetylcholinesterase (AChE) small molecule antagonists: enzyme-based qHTS assay with human liver microsomes (AID 1347399); settings: qHTS inhibition; series mostly up to 115 µM; also: nearly all actives have a fitted effect of over 60% in size
Sequence (P22303 whole entry, looked up): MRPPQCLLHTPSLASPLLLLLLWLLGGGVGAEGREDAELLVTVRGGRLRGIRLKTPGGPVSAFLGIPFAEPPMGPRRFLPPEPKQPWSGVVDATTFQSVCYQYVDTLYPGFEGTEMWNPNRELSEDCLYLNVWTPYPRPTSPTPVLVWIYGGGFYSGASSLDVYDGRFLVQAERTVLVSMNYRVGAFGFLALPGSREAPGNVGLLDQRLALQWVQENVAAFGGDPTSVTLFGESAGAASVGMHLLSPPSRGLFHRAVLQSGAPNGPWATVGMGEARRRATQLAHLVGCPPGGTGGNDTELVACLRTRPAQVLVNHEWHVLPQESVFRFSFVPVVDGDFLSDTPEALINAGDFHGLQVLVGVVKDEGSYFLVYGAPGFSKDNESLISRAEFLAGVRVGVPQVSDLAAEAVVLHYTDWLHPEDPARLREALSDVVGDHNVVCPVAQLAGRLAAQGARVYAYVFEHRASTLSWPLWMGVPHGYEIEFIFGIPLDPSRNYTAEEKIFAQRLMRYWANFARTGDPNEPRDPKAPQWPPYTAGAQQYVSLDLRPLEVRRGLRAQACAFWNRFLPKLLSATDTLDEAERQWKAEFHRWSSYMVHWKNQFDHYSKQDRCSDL
Activity calls are given as the source filed them. Calls follow the shape of the full dose curve.
Select the matching outcome among active, inactive

Examples from the recorded data:
{"molecule": "CCC1(CC)C(=O)NC(=O)NC1=O", "category_label": "inactive"}
{"molecule": "CC(C)c1ccc(OP(=O)(Oc2ccc(C(C)C)cc2)Oc2ccc(C(C)C)cc2)cc1", "category_label": "inactive"}
{"molecule": "CCC(C)(C)c1ccc(O)c(C(C)(C)CC)c1", "category_label": "inactive"}
{"molecule": "CNC(=O)Oc1cccc(N=CN(C)C)c1", "category_label": "active"}
{"molecule": "CCCCC#N", "category_label": "inactive"}

Note: attention shifts to another entry.
// outcome(item) with item = `FC(Cl)(Cl)C(F)(Cl)Cl`
inactive

###

molecular target: Androgen receptor (Homo sapiens); assay: qHTS assay to identify small molecule antagonists of the androgen receptor (AR) signaling pathway using the MDA cell line in the presence of 0.5 nM R1881 (AID 1259243); details: MDA-kb2 MMTV-luciferase, R1881 0.5 nM, 16 h; series mostly up to 92.4 µM; also: % is scaled to controls: 0 for no effect and ±100 for the full control effect; nearly all actives have a fitted effect of over 50% in size
Results filed as inconclusive are left out. Active and inactive are the calls of the source. Calls follow the shape of the dose curve; as a rule, active = well fitted inhibition curve with a large enough effect in the repeat runs; inconclusive = weak or mixed curves; inactive = no such curve, though single readings can be large or run the other way.
endpoint_name: activity, negative = inhibition

Recorded activity, negative = inhibition, per entry:
{"compound": "ClCc1ccccc1Cl", "measured_value": "inactive"}
{"compound": "Nc1c(Br)cc(Br)c2c1C(=O)c1ccccc1C2=O", "measured_value": "-15.1% [at 19 µM] (inactive)"}
{"compound": "COCc1cnc(C2=NC(C)(C(C)C)C(=O)N2)c(C(=O)O)c1 (stereo not given)", "measured_value": "inactive"}
{"compound": "CC1(C)[C@H](C(=O)O[C@H](C#N)c2cccc(Oc3ccccc3)c2)[C@@H]1C=C(Br)Br", "measured_value": "inactive"}

Looking up CC(Cl)C(=O)O (stereo not given) , I found its activity, negative = inhibition recorded as inactive

###

assay: qHTS assay to identify small molecule agonists of the sonic hedgehog signaling (Shh) pathway - cell viability counter screen (AID 1259366); details: NIH/3T3 Gli1-Luc viability, CellTiter-Fluor, 24 h; series mostly up to 92.4 µM; also: nearly all actives have a fitted effect of over 50% in size
Records with an inconclusive call do not appear. Active and inactive are the calls of the source. The call rests on the fitted dose curve; in most records, active means well fitted cell-killing curve with a large enough effect in the repeat runs; inconclusive means weak or mixed curves, or effect the other way; inactive means flat fitted curve, though single readings scatter.
Select the matching outcome among active, inactive

Examples from the recorded data:
{"compound": "CCCCCCCCCCCC[N+](C)(C)CCOc1ccccc1", "category_label": "active"}
{"compound": "CCCCC(CC)COC(=O)c1c(Br)c(Br)c(Br)c(Br)c1C(=O)OCC(CC)CCCC (stereo unspecified)", "category_label": "inactive"}

// outcome(item) with item = C[C@H]1O[C@H](OC2[C@@H](O)[C@@H](O)C(O)[C@H](O)[C@H]2O)[C@@H](N)C[C@@H]1N=C(N)C(=O)O (stereo partly specified)
inactive

// outcome(item) with item = CCC1(C2=NCCN2)Cc2ccccc2O1 (stereo unspecified)
inactive

// outcome(item) with item = `C=CC(=O)OCC`
inactive

// outcome(item) with item = `CC(=O)NNc1ccccc1`
inactive

###

experiment: qHTS assay for small molecule disruptors of the mitochondrial membrane potential (AID 720635); conditions: HepG2 mitochondrial membrane potential, Mito-MPS dye ratio; series mostly up to 83.2 µM
Inconclusive results are not listed. The source made the active and inactive calls. The call rests on the fitted dose curve; in most records, active means well fitted inhibition curve with a large enough effect in the signal ratio in the repeat runs; inconclusive means weak or mixed curves, or effect the other way; inactive means flat fitted curve, though single readings scatter; the % refers to the signal ratio.
Select the matching outcome among active, inactive

Examples from the recorded data:
{"molecule": "CNC(=O)Oc1cccc(N=CN(C)C)c1", "category_label": "inactive"}
{"molecule": "CN(C1CCCCC1)C1CCCCC1", "category_label": "inactive"}
{"molecule": "CCCN(CCC)c1c([N+](=O)[O-])cc(C(C)C)cc1[N+](=O)[O-]", "category_label": "active"}

// outcome(item) with item = CCOP(=O)(SC(C)CC)N1CCSC1=O (configuration not stated)
inactive

// outcome(item) with item = CCCCC(CC)CO[N+](=O)[O-] (configuration not stated)
inactive

// outcome(item) with item = FC(F)OC(F)(F)C(F)Cl (configuration not stated)
inactive

// outcome(item) with item = `CC(C)(C)N(NC(=O)c1ccc(Cl)cc1)C(=O)c1ccccc1`
active

###

assay: qHTS assay to identify small molecule agonists of the endoplasmic reticulum stress response signaling pathway - cell viability counter screen (AID 1159517); details: ESRE-bla HeLa viability, CellTiter-Glo luminescence, 5 h; series mostly up to 61 µM;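 also: HeLa cells carrying an ER stress response element beta-lactamase reporter; % is scaled to controls: 0 for no effect and ±100 for the full control effect; nearly all actives have a fitted effect of over 50% in size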
Results filed as inconclusive are left out. Activity calls are given as the source filed them. Calls follow the shape of the full dose curve.
endpoint_name: outcome

Recorded outcome, per entry:
{"compound": "Cc1ccc2c(C)cccc2c1", "outcome": "inactive"}
{"compound": "Cc1ncc(C[n+]2csc(CCO)c2C)c(N)n1", "outcome": "inactive"}
{"compound": "O=C(N[C@H]1CN2CCC1CC2)c1ccc2c(c1)OCCO2", "outcome": "inactive"}
{"compound": "O=S(=O)(Cl)Cl", "outcome": "inactive"}
{"compound": "COCc1cnc(C2=NC(C)(C(C)C)C(=O)N2)c(C(=O)O)c1 (stereo unspecified)", "outcome": "inactive"}
{"compound": "CC1(C)CC(=O)CC(C)(C)N1[O]", "outcome": "inactive"}

Looking up `CC(C)CCCCCCCOC(=O)c1ccccc1C(=O)OCCCCCCCC(C)C` , I found its outcome recorded as inactive

Looking up C[N+](C)(C)CC1CO1 (stereo unspecified) , I found its outcome recorded as inactive

###

target: Nuclear receptor subfamily 1 group I member 3 (Homo sapiens); experiment: qHTS assay to identify small molecule agonists of the constitutive androstane receptor (CAR) signaling pathway (AID 1224839); conditions: HepG2 hCAR CYP2B6-luciferase, agonist mode, 24 h; series mostly up to 92.4 µM; also: nearly all actives have a fitted effect of over 15% in size;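 as to activation: HepG2 cells stably carrying human CAR and a CYP2B6 luciferase reporter; % is scaled to controls: 0 for no effect and ±100 for the full control effect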
Results filed as inconclusive are left out. The source made the active and inactive calls. The call rests on the fitted dose curve; in most records, active means well fitted activation curve with a large enough effect in the repeat runs; inconclusive means weak or mixed curves; inactive means no such curve, though single readings can be large or run the other way.
Select the matching outcome among active, inactive

Examples from the recorded data:
{"compound": "CN[C@@H](C)[C@H](O)c1ccccc1", "category_label": "inactive"}
{"compound": "CN1C(=O)CN=C(c2ccccc2)c2cc([N+](=O)[O-])ccc21", "category_label": "inactive"}
{"compound": "C[C@H]1O[C@H](OC2[C@@H](O)[C@@H](O)C(O)[C@H](O)[C@H]2O)[C@@H](N)C[C@@H]1N=C(N)C(=O)O (stereo partly specified)", "category_label": "inactive"}
{"compound": "CC(Cc1ccccc1)NCc1ccccc1Cl (stereo unspecified)", "category_label": "active"}
{"compound": "O=CC=O", "category_label": "inactive"}

// outcome(item) with item = CC(C)(C)NCC(O)c1ccccc1Cl (stereo unspecified)
inactive

// outcome(item) with item = CCC(C)Cl (stereo unspecified)
inactive

// outcome(item) with item = `CC(C)CCCCCCCOC(=O)c1ccccc1C(=O)OCCCCCCCC(C)C`
inactive

###

assay: qHTS assay to identify small molecule antagonists of the thyroid receptor (TR) signaling pathway - cell viability counter screen (AID 743064); details: GH3.TRE-Luc viability, CellTiter-Fluor, 24 h; series mostly up to 70.3 µM; also: nearly all actives have a fitted effect of over 50% in size
Results filed as inconclusive are left out. The source made the active and inactive calls. Calls come from the whole dose curve; as a rule, active = well fitted cell-killing curve with a large enough effect in the repeat runs; inconclusive = weak or mixed curves, or effect the other way; inactive = no such curve, though single readings can be large or run the other way.
Select the matching outcome among TRUE = active, FALSE = inactive

{"compound": "CCCC(C)(COC(N)=O)COC(=O)NC(C)C (centres undefined)", "category_label": "FALSE"}

// outcome(item) with item = `CCOP(=S)(S)OCC`
FALSE

// outcome(item) with item = `ClCc1ccccc1Cl`
FALSE

// outcome(item) with item = FC(F)OC(F)(F)C(F)Cl (centres undefined)
FALSE

// outcome(item) with item = `C[N+]1(CCC(C(N)=O)(c2ccccc2)c2ccccc2)CCCCC1`
FALSE

// outcome(item) with item = `O=C(O)c1cc(Cl)ccc1Cl`
FALSE

// outcome(item) with item = C=CCOCC1CO1 (centres undefined)
FALSE

// outcome(item) with item = `O=C(N[C@H]1CN2CCC1CC2)c1ccc2c(c1)OCCO2`
FALSE

// outcome(item) with item = `O=C(NC(=O)c1cc(F)c(F)cc1Cl)Nc1cc(F)ccc1N1CCC(C(=O)O)CC1`
FALSE

// outcome(item) with item = COC1CC(=C(c2cccs2)c2cccs2)C[N+](C)(C)C1 (centres undefined)
FALSE

// outcome(item) with item = `COC1=CC(=O)O[C@@H](/C=C/c2ccc3c(c2)OCO3)C1`
FALSE

// outcome(item) with item = `N#CC1(N=NC2(C#N)CCCCC2)CCCCC1`
FALSE

// outcome(item) with item = CC[N+]1(C)CCCC(OC(=O)C(O)(c2ccccc2)c2ccccc2)C1 (centres undefined)
FALSE

// outcome(item) with item = CCCCC1C(=O)NC(=O)N(C2CCCCC2)C1=O (centres undefined)
FALSE

// outcome(item) with item = `CN[C@@H](C)[C@H](O)c1ccccc1`
FALSE

// outcome(item) with item = `C[C@@H]1C[C@@H]([C@H](O)CC2CC(=O)NC(=O)C2)C(=O)[C@@H](C)C1`
TRUE
